Give pest or weed control at 100 ppm for every item shown.
Tested on: Zymoseptoria tritici
Experiment: Fungicidal activity: leaf blotch of wheat (SEPTTR), percent disease control on wheat seedlings
Assay type: in vivo
Details: Zymoseptoria tritici, 24 h, HV (high volume) activity at 100 ppm, 1 Day Protectant, read-out: SEPTTR 1DP disease control rating

Task item: I have this molecule here, CCc1cc(F)ccc1[C@@H](Sc1ccccc1)[C@H](C)OC(=O)[C@H](C)NC(=O)c1nccc(OC)c1O , and I need its recorded pest or weed control at 100 ppm.
Reply: > 80%

Task item: I have this molecule here, COc1ccnc(C(=O)N[C@@H](C)C(=O)O[C@@H](C)[C@H](Sc2ccccc2)c2ccc(F)cc2)c1O , and I need its recorded pest or weed control at 100 ppm.
Reply: > 80%

Task item: I have this molecule here, COc1ccnc(C(=O)N[C@@H](C)C(=O)O[C@@H](C)[C@H](Sc2cccc(Cl)c2)c2ccccc2)c1O , and I need its recorded pest or weed control at 100 ppm.
Reply: ≤ 80%

Task item: I have this molecule here, COc1ccnc(C(=O)N[C@@H](C)C(=O)O[C@@H](C)[C@H](Sc2ccc(C)cc2)c2ccccc2)c1O , and I need its recorded pest or weed control at 100 ppm.
Reply: ≤ 80%

Task item: I have this molecule here, COc1ccnc(C(=O)N[C@@H](C)C(=O)O[C@@H](C)[C@H](SCC(C)C)c2ccccc2)c1O , and I need its recorded pest or weed control at 100 ppm.
Reply: ≤ 0%

Task item: I have this molecule here, COc1ccnc(C(=O)N[C@@H](C)C(=O)O[C@@H](C)[C@@H](c2ccccc2)[S+]([O-])c2ccc(F)cc2)c1O (some centres unmarked) , and I need its recorded pest or weed control at 100 ppm.
Reply: ≤ 0%

Task item: I have this molecule here, COc1ccnc(C(=O)N[C@@H](C)C(=O)O[C@@H](C)[C@H](Sc2ccc(F)cc2C)c2ccc(F)cc2C)c1O , and I need its recorded pest or weed control at 100 ppm.
Reply: > 80%

Task item: I have this molecule here, COc1ccnc(C(=O)N[C@@H](C)C(=O)O[C@@H](C)[C@H](Sc2ccccc2)c2ccc(C)cc2)c1O , and I need its recorded pest or weed control at 100 ppm.
Reply: > 80%

Task item: I have this molecule here, COc1ccnc(C(=O)N[C@@H](C)C(=O)O[C@@H](C)[C@H](Sc2ccc(F)cc2)c2ccccc2)c1O , and I need its recorded pest or weed control at 100 ppm.
Reply: ≤ 0%

Task item: I have this molecule here, COc1ccnc(C(=O)N[C@@H](C)C(=O)O[C@@H](C)[C@H](Sc2ccc(C)cc2C)c2ccccc2)c1O , and I need its recorded pest or weed control at 100 ppm.
Reply: > 80%

Task item: I have this molecule here, COc1ccnc(C(=O)N[C@@H](C)C(=O)O[C@@H](C)[C@H](Sc2ccccc2)c2ccc(F)cc2C)c1O , and I need its recorded pest or weed control at 100 ppm.
Reply: > 80%

Task item: I have this molecule here, COc1ccnc(C(=O)N[C@@H](C)C(=O)O[C@@H](C)[C@H](SC(C)C)c2ccccc2)c1O , and I need its recorded pest or weed control at 100 ppm.
Reply: ≤ 0%

Task item: I have this molecule here, COc1ccnc(C(=O)N[C@@H](C)C(=O)O[C@@H](C)[C@H](Sc2ccc(C(F)(F)F)cn2)c2ccccc2)c1O , and I need its recorded pest or weed control at 100 ppm.
Reply: ≤ 0%

Task item: I have this molecule here, COc1ccnc(C(=O)N[C@@H](C)C(=O)O[C@@H](C)[C@@H](c2ccccc2)S(=O)(=O)c2ccc(F)cc2)c1O , and I need its recorded pest or weed control at 100 ppm.
Reply: ≤ 80%
